Assay: Half life in Sprague-Dawley rat at 50 mg/kg, ip measured upto 24 hrs by LC-MS analysis
Assay type: ADME, organism-based
Settings: in vivo
experimentalEndpoint: half-life (h)
One number for each entry, in h.

The recorded half-life for entry "Oc1c(Cc2nccc3cc4c(cc23)OCO4)ccc2c1OCO2" equals 2.3

----------
System: HGC-27
Assay: Antiproliferative activity against human HGC-27 cells assessed as reduction in cell viability after 24 hrs by MTT assay
Format: functional, cell-based
Settings: HGC-27, 24 h
What IC50 was measured for each of the following?
Answers are plain numbers, in µM.

# molecule, IC50 / µM
records = [
    ("COc1ccc2c(c1OC)CN(C)CCc1cc3c(cc1C(=O)C2)OCO3", 97.8),
]

Parameters: items (list). Returns: IC50 for each item.
1. CCOC(=O)c1c(C(=O)c2nccc3cc4c(cc23)OCO4)ccc2c1OCO2
2. Oc1c(Cc2nccc3cc4c(cc23)OCO4)ccc2c1OCO2
3. COc1cc(/C=C/C(=O)NCCc2ccc(O)cc2)ccc1O [N-TRANS-FERULOYL TYRAMINE]
4. CC(=O)c1ccc2c(c1Cn1ccc3cc4c(cc3c1=O)OCO4)OCO2
5. O=c1[nH]cc(F)c(=O)[nH]1

66.1
7.6
84.5
53.8
45.2

Parameters: items (list). Returns: IC50 for each item.
1. COc1cc2c(cc1O)C1Cc3ccc4c(c3CN1CC2)OCO4 (stereo not given)
2. O=C1NCCc2cc3c(cc21)OCO3 [NOROXYHYDRASTININE]
3. COc1cc2c(cc1OC)C1Cc3ccc4c(c3CN1CC2)OCO4 (stereo not given)
4. COc1cc2c(cc1O)[C@@H]1Cc3ccc(OC)c(O)c3CN1CC2

38.3
120
81
6.1
